biological target: TYK2 (Homo sapiens, UniProt P29597); construct: purchased Carna Biosciences; assay: TYK2 microfluidic kinase assay (Caliper EZ Reader II, FAM labeled peptide substrate); format: biochemical; conditions: IC50 TYK2 ([…]) (1 mM ATP), TYK2 […], 1 mM ATP
Sequence (P29597 whole entry): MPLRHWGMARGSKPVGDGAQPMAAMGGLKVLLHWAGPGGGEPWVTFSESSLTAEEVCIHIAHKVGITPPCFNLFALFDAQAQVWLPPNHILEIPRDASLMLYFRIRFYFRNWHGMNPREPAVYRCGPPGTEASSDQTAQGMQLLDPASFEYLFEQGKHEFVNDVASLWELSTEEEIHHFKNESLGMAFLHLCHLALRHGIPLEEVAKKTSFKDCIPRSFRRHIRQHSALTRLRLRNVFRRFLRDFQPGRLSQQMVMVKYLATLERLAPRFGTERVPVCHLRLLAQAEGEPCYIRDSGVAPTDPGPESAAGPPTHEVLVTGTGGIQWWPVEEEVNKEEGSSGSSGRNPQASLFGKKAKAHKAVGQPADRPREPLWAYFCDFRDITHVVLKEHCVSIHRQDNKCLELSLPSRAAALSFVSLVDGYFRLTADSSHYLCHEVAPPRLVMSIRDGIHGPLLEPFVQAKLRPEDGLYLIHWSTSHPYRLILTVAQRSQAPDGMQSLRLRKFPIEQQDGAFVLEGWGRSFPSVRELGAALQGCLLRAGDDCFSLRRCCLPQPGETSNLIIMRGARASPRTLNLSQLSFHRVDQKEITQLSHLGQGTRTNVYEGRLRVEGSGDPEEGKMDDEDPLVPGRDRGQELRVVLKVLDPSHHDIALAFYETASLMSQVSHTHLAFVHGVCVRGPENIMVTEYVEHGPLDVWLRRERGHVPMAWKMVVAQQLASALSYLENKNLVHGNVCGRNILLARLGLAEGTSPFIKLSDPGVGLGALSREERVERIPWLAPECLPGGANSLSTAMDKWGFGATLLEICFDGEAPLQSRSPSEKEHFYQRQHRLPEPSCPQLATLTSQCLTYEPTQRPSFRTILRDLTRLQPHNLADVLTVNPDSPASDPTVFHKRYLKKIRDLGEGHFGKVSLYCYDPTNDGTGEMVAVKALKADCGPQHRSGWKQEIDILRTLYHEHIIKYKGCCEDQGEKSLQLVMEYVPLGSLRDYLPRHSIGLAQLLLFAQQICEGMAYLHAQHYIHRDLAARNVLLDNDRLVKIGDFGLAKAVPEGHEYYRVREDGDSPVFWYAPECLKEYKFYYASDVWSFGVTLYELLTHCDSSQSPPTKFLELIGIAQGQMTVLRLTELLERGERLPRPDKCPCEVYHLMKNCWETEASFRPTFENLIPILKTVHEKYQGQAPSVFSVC
property.measured: IC50 (nM)

{"smiles.repr": "Cc1cnc(Nc2cnn(CC#N)c2)nc1-c1ccc(C(=O)NCC#N)cc1", "IC50 / nM": 62.9}

I: CN1CCC(n2cc(Nc3ncc(Cl)c(-c4ccc(C(=O)NCC#N)cc4)n3)cn2)CC1
II: C[C@@H](C#N)NC(=O)c1ccc(-c2nc(Nc3cnn(C4CC(C)(C)OC(C)(C)C4)c3)ncc2Cl)cc1
III: Cc1cnc(Nc2cnn(C3CCN(CCO)CC3)c2)nc1-c1ccc(C(=O)N[C@@H](C)C#N)cc1
In: Arrange these 3 compounds in increasing order of IC50. Note for the reader: the ranking is given by listing the labels in the order requested.
Out: II, III, I

###

biological target: JAK1 (Homo sapiens); construct: purchased Carna Biosciences; assay: JAK1 microfluidic kinase assay (Caliper EZ Reader II, FAM labeled peptide substrate); format: biochemical; conditions: IC50 JAK1 (5 nM) (1 m MATP), JAK1 5 nM, 1 mM ATP
Sequence (P23458 whole entry): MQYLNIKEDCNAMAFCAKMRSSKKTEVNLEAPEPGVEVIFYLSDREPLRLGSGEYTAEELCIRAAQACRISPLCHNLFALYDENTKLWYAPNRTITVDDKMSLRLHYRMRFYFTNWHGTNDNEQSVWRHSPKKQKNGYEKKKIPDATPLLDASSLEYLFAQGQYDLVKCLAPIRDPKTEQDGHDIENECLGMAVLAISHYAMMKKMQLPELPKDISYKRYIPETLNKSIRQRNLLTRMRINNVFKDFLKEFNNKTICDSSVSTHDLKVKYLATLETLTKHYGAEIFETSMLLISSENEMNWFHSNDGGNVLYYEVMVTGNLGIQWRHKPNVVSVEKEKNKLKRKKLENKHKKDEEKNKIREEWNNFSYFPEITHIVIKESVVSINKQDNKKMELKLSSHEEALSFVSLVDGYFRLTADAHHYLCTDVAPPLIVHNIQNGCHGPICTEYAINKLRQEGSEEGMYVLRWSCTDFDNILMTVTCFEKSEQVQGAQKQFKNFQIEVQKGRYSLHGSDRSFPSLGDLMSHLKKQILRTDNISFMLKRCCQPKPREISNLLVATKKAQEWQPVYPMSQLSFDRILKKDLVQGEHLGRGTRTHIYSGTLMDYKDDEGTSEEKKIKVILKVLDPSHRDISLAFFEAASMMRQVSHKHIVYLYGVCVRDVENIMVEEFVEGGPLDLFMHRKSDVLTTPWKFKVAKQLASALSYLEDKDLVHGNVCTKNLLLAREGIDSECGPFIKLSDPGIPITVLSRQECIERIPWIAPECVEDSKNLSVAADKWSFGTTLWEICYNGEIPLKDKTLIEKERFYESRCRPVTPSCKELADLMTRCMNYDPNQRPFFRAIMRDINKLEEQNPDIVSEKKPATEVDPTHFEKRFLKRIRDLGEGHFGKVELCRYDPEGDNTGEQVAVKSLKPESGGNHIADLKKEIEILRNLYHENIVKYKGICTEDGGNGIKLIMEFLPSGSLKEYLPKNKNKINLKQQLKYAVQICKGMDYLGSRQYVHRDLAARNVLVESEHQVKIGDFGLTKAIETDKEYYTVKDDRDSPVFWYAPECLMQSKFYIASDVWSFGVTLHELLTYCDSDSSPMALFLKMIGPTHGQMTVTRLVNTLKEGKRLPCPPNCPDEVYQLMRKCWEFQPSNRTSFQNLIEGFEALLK
property.measured: IC50 (nM)

Solved cases (5 shown):
{"compound": "Cc1cnc(Nc2cnn(C)c2)nc1-c1ccc(C(=O)NCC#N)cc1 [Example 11]", "quantity.unit": "nM", "IC50": 19.6}
{"compound": "CC[C@@H](C#N)NC(=O)c1ccc(-c2nc(Nc3cnn(CCO)c3)ncc2C)cc1 [Example 172]", "quantity.unit": "nM", "IC50": 1.93}
{"compound": "C[C@@H](C#N)NC(=O)c1ccc(-c2nc(Nc3cnn(CCC#N)c3)ncc2Cl)cc1 [Example 189]", "quantity.unit": "nM", "IC50": 4.02}
{"compound": "Cc1cnc(Nc2cnn(C)c2)nc1-c1ccc(C(=O)N[C@@H](C)C#N)cc1 [Example 18]", "quantity.unit": "nM", "IC50": 10}
{"compound": "Cc1cnc(Nc2cnn(C3CCN(C)CC3)c2)nc1-c1ccc(C(=O)N[C@@H](C)C#N)cc1 [Example 48]", "quantity.unit": "nM", "IC50": 3.83}

I: C[C@@H](C#N)NC(=O)c1ccc(-c2nc(Nc3cnn(C4CCN(C(=O)C(C)(C)C)CC4)c3)ncc2Cl)cc1 [Example 99]
II: Cc1cnc(Nc2cnn(C)c2)nc1-c1ccc(C(=O)N[C@H]2C[C@@H](C#N)C2)cc1 [Example 16]
In: Kindly identify which of I and II has the larger recorded IC50 value. Answer by quoting the chosen item's label.
Out: II

1: CC[C@@H](C#N)NC(=O)c1ccc(-c2nc(Nc3cnn(C4CCN(C)CC4)c3)ncc2F)cc1 [Example 59]
2: Cc1cnc(Nc2cnn(C3CC3)c2)nc1-c1ccc(C(=O)N[C@H](C#N)C2CC2)cc1 [Example 194]
3: Cc1cnc(Nc2cnn(C3CC(C#N)C3)c2)nc1-c1ccc(C(=O)NCC#N)cc1 (stereo not shown) [Example 106]
4: CC[C@@H](C#N)NC(=O)c1ccc(-c2nc(Nc3cnn(C4CCN(C)CC4)c3)ncc2Cl)cc1 [Example 88]
In: Hey, quick one: sort these by IC50, low to high? Return value: ordered labels per request.
Out: 4, 2, 3, 1

P: Cc1cnc(Nc2cnn([C@H]3CC[C@@H](C#N)CC3)c2)nc1-c1ccc(C(=O)NCC(F)(F)F)cc1 [Example 86]
Q: Cc1cnc(Nc2cnn(C)c2)nc1-c1ccc(C(=O)NCC2(O)CC2)cc1 [Example 32]
R: CC[C@@H](C#N)NC(=O)c1ccc(-c2nc(Nc3cnn(C4CCCN(C)C4)c3)ncc2C)cc1 (stereo partly shown) [Example 211]
In: Parameters: sort_field (IC50), sort_dir (desc). Sort and list the labels as requested.
Out: Q, R, P
